MEASUREMENT_NOTES: inhibitors of Sendai virus-induced IRF3 signaling, primary screen, TLR/RLR signaling modifier project, cell-based, Sendai virus stimulus, luciferase, 10K MLSCN set (AID 602276);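 also: firefly luciferase from ISG56 promoter only with Renilla not read in this screen; 0% = Sendai virus plus DMSO and 100% = medium plus DMSO without virus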
CONDITIONS: HEK293 RL24 IRF3 luciferase reporter, at 10 µM, stronger effect = higher value
OBSERVABLE: inhibition (%)
Report the figure in % without appending any unit label.

Some molecules with recorded inhibition:
Cc1cccc(CCNC(=O)CCc2nc(-c3ccccc3F)no2)c1 | -0.595
C=CCn1c(SCC(=O)Nc2ccccc2OC)nnc1-c1ccco1 | 20.4
COCC(=O)Nc1c(C(=O)Nc2ccccc2OC)oc2ccccc12 | -4.76
COC(=O)c1cc(S(=O)(=O)N2CCC(C)CC2)ccc1F | 15.3
O=C(O)c1ccc2c(c1)N(Cc1ccccc1F)C(=O)c1ccccc1S2=O (stereo unspecified) | 11.3

With those in mind, consider the next molecule.
What the record says about COc1cc(C2c3c(oc4c(C)cc(C)cc4c3=O)C(=O)N2Cc2cccnc2)ccc1O (stereo unspecified) : inhibition is 16.4
